pIC50 reference
Target: TRPC5 (Homo sapiens, UniProt Q9UL62)
Construct: expressed in transfected cells; host or cells: HEK 293
Sequence (Q9UL62 whole entry): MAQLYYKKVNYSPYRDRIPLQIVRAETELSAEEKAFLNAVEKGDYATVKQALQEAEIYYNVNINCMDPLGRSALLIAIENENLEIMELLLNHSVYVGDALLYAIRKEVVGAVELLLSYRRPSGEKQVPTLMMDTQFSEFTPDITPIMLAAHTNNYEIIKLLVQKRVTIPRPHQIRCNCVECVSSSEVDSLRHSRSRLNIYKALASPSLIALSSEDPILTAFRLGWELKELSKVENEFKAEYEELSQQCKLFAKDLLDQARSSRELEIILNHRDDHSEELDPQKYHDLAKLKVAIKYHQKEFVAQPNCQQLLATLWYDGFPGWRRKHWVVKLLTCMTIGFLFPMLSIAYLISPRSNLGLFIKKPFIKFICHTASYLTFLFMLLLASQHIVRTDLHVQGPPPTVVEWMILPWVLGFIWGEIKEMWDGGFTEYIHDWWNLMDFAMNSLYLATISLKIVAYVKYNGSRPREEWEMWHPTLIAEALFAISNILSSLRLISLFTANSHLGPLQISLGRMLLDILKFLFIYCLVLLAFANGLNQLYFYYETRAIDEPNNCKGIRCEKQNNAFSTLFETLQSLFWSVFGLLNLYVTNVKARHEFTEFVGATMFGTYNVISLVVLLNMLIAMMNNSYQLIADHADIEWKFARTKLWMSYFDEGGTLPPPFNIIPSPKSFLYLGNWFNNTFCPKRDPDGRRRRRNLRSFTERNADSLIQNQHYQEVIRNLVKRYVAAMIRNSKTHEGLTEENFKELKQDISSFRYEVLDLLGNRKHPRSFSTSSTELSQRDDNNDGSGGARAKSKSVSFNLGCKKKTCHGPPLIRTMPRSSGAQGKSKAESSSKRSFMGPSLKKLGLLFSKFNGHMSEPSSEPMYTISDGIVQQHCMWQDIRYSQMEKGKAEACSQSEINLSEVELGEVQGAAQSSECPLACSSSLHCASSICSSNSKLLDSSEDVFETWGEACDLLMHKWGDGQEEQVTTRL
Test: TRPC5 Fluorescence Assay - FLIPR format (HEK-TREx hTRPC5, Riluzole stimulation)
Format: cell-based
Details: Table 7, read-out: TRPC5-FLIPR IC50
pIC50: −log10 of the molar value.
ASSAY METRIC: pIC50

> print(dat)
                                   compound                     system.under.test      obs.value
1  O=c1[nH]ncc(N2CCc3c(ncn3Cc3cccnc3CC(F)F)C2)c1Cl [drawing 929]  TRPC5 (Homo sapiens, UniProt Q9UL62)  6.00 to 11.00
2  O=c1[nH]ncc(N2CCc3c(ncnc3Oc3ccccc3C(F)(F)F)C2)c1Cl  TRPC5 (Homo sapiens, UniProt Q9UL62)  6.00 to 11.00
3  COc1nn(Cc2ccccc2C(F)F)c2c1CN(c1cn[nH]c(=O)c1Cl)CC2 [drawing 931]  TRPC5 (Homo sapiens, UniProt Q9UL62)  6.00 to 11.00
4  CCCCn1c(Oc2cccc(F)c2)nc2c1CCN(c1cn[nH]c(=O)c1Cl)C2  TRPC5 (Homo sapiens, UniProt Q9UL62)   5.30 to 6.00
5  NC(=O)c1nn(Cc2ccccc2C(F)F)c2c1CN(c1cn[nH]c(=O)c1Cl)CC2  TRPC5 (Homo sapiens, UniProt Q9UL62)  6.00 to 11.00
